# target or system: GvpF fused to NGFP or CGFP (split-GFP) (Halobacterium salinarum PHH1)
# Sequence (P24370 whole entry, the tested form may be a part): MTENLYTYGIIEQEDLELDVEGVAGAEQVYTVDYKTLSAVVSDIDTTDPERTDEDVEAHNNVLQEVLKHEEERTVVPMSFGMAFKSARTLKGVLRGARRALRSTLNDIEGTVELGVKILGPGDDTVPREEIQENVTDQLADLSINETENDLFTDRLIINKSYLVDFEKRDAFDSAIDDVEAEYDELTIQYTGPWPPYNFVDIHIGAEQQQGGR
# measurement notes: split reporter (BiFC, NanoBiT); split-GFP (mGFP2 split between residues 157 and 158) in Hfx. volcanii transformants in vivo; eight combinations of fusions a pair, highest relative fluorescence (rf) given; cells in basal salts (3 M NaCl, 150 mM MgSO4, 50 mM KCl) at OD600 1; rf > 5 clear interaction, rf < 1 no interaction
experimental endpoint: highest relative fluorescence (rf)
Quick reminder: number only, in rf, skip the unit.

Reported highest relative fluorescence (rf), binder GvpA fused to NGFP or CGFP (split-GFP) (natural protein) MAQPDSSGLAEVLDRVLDKGVVVDVWARVSLVGIEILTVEARVVAASVDTFLHYAEEIAKIEQAELTAGAEAAPEA : ____
20

Reported highest relative fluorescence (rf), binder MAQPDSSGLAEVLDRVLDKGVV (domain or fragment) [GvpA fragment A1-22 fused to NGFP or CGFP (split-GFP)] : ____
41

Every entry's value here was drawn from paper PMC7688916.
